- System: Fibroblast
- Test details: Multiplex assay against human fibroblast
- Type: toxicity, cell-based
- Settings: 12 h, 1 µM, compound concentration 1 uM, replicate 1
Please respond with reported Population Healthy Nuclei (%) for every item in the list.

The recorded Population Healthy Nuclei (%) for entry Cc1c[nH]c2nccc(Oc3c(F)cc(Nc4cc(Cl)nc(N)n4)cc3F)c12 [BAY-549] equals 41%

The recorded Population Healthy Nuclei (%) for entry Cc1cccc(CN2CCN(C(c3ccccc3)c3ccc(Cl)cc3)CC2)c1.Cl.Cl (centres undefined) equals 48%

The recorded Population Healthy Nuclei (%) for entry C=CC(=O)Nc1ccc2[nH]c(=O)n(C3CCN(Cc4ccc(-c5nc6cc[nH]c(=O)c6cc5-c5ccccc5)cc4)CC3)c2c1 [Borussertib] equals 51%

The recorded Population Healthy Nuclei (%) for entry Cc1ccc2c(c1)c1c(n2CCc2ccc(C)nc2)CCN(C)C1 [LATREPIRDINE] equals 55%
